FYI, the data here is from the RNAGym collection of RNA variant scans (doi:10.7554/elife.80360).

B1: Hairpin Ribozyme (parent)
chain: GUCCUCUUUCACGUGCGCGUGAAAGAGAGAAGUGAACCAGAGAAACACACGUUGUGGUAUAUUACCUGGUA

Variants of: B1
methodSummary: self-cleavage, relative activity (ratio to wild type); higher = more cleavage; co-transcriptional
Each record's class is read off its self-cleavage using these ranges: range 1 = under 0.2, range 2 = from 0.2 up to 0.3, range 3 = 0.3 and over

- mutant: "G1U G40A"
  discreteLabel: "range 1"

Read the next record carefully.
Prompt: Class label required: C4U G25U
Completion: range 1
